# Test system: RARb homodimer (NR concentration 270 nM)
# ASSAY INFO: PBM binding z-score (relative to random genomic background probes); higher = stronger binding; sequences stand for … in GC…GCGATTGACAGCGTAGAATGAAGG
Give 1 when the value for PBM binding z-score is at least 3. Give -1 when it is less.

(Q) Decide: is the reported value of PBM binding z-score for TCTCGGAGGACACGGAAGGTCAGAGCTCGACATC equal to or greater than 3?
(A) 1

---

# System: RARg homodimer (NR concentration 270 nM)
# ASSAY INFO: PBM binding z-score (relative to random genomic background probes); higher = stronger binding; sequences stand for … in GC…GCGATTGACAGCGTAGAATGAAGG
Short version: PBM binding z-score at least 3 is YES, less is NO.

{"RESIDUES": "GCTTGTACATCAAGGTTAAGAAAGACTAAGCTAA", "CLASSIFICATION": "NO"}

Let's switch to this sequence now.
(Q) I'd appreciate it if you could say whether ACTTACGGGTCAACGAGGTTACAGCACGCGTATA has PBM binding z-score at least equal to 3.
(A) YES
